Listing: Kb of selected molecules
- targetOfAssay: Substance-K receptor (Mesocricetus auratus, UniProt P51144)
- Sequence (P51144 whole entry): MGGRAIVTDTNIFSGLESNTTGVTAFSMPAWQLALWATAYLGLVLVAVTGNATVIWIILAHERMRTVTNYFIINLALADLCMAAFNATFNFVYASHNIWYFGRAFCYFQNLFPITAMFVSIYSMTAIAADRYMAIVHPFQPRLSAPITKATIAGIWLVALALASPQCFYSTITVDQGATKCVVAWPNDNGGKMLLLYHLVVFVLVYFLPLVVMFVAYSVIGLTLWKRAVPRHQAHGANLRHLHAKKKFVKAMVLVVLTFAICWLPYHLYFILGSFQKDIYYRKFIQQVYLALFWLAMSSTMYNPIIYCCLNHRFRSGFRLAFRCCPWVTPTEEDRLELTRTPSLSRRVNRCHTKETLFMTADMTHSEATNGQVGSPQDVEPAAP
- method: Antagonist activity against Tachykinin receptor 2 was measured by Hamster isolated trachea(HT) assay.
- Format: functional, tissue-based
- measurementConditions: read-out: pA2 (converted)
endpointName: Kb (µM)

compound=CC(C)[C@H](NC(=O)[C@@H](Cc1c[nH]c2ccccc12)NC(=O)[C@H](Cc1ccc(O)cc1)NC(=O)[C@@H](N)CC(=O)O)C(=O)NCC(=O)N[C@H](Cc1c[nH]c2ccccc12)C(=O)N[C@@H](CCCN=C(N)N)C(=O)O targetofassay="Substance-K receptor (Mesocricetus auratus, UniProt P51144)" unitslabel=µM experimentalvalue=6.31
compound=CSCC[C@H](NC(=O)[C@@H](Cc1c[nH]c2ccccc12)NC(=O)[C@@H](Cc1c[nH]c2ccccc12)NC(=O)[C@@H](NC(=O)[C@@H](Cc1c[nH]c2ccccc12)NC(=O)[C@H](CO)NC(=O)[C@@H](N)CC(=O)O)C(C)C)C(=O)O targetofassay="Substance-K receptor (Mesocricetus auratus, UniProt P51144)" unitslabel=µM experimentalvalue=6.46
compound=CC(C)[C@@H](NC(=O)[C@@H](Cc1c[nH]c2ccccc12)NC(=O)[C@@H](Cc1ccc(O)cc1)NC(=O)[C@@H](N)CC(=O)O)C(=O)N[C@H](Cc1c[nH]c2ccccc12)C(=O)N[C@H](Cc1c[nH]c2ccccc12)C(=O)N[C@H](CCCN=C(N)N)C(=O)O targetofassay="Substance-K receptor (Mesocricetus auratus, UniProt P51144)" unitslabel=µM experimentalvalue=1.1
compound=CSCC[C@H](NC(=O)[C@H](CC(C)C)NC(=O)CNC(=O)[C@@H](Cc1c[nH]c2ccccc12)NC(=O)[C@H](Cc1ccccc1)NC(=O)[C@@H](Cc1c[nH]c2ccccc12)NC(=O)[C@@H](N)CC(=O)O)C(=O)O targetofassay="Substance-K receptor (Mesocricetus auratus, UniProt P51144)" unitslabel=µM experimentalvalue=9.12

* * *

- targetOfAssay: Substance-K receptor (Mesocricetus auratus, UniProt P51144)
- method: Antagonist activity against Tachykinin receptor 2 was measured by Hamster isolated trachea(HT) assay.
- Format: functional, tissue-based
- measurementConditions: read-out: pA2 (converted)
Listing: Kb of selected compounds
endpointName: Kb

compound=CSCC[C@H](NC(=O)[C@H](CC(C)C)NC(=O)CNC(=O)[C@@H](Cc1c[nH]c2ccccc12)NC(=O)[C@H](Cc1ccccc1)NC(=O)[C@H](Cc1ccc(O)cc1)NC(=O)[C@@H](N)CC(=O)O)C(=O)O endpointname=Kb experimentalvalue="14.8 µM"
compound=CC(C)[C@H](NC(=O)[C@@H](Cc1c[nH]c2ccccc12)NC(=O)[C@H](Cc1ccc(O)cc1)NC(=O)[C@@H](N)CC(=O)O)C(=O)N[C@H](Cc1c[nH]c2ccccc12)C(=O)N[C@H](Cc1c[nH]c2ccccc12)C(=O)N[C@@H](CCCN=C(N)N)C(=O)O endpointname=Kb experimentalvalue="1.58 µM"
compound=CC(C)[C@@H](NC(=O)[C@@H](Cc1c[nH]c2ccccc12)NC(=O)[C@@H](Cc1ccc(O)cc1)NC(=O)[C@@H](N)CC(=O)O)C(=O)NCC(=O)N[C@H](Cc1c[nH]c2ccccc12)C(=O)N[C@H](CCCN=C(N)N)C(=O)O endpointname=Kb experimentalvalue="0.562 µM"
compound=CC(C)[C@H](NC(=O)[C@@H](Cc1c[nH]c2ccccc12)NC(=O)[C@H](Cc1ccc(O)cc1)NC(=O)[C@@H](N)CC(=O)O)C(=O)N[C@H](Cc1c[nH]c2ccccc12)C(=O)N[C@H](Cc1c[nH]c2ccccc12)C(=O)N[C@H](Cc1c[nH]c2ccccc12)C(=O)O endpointname=Kb experimentalvalue="1.38 µM"
